Data provenance: patent US20260242478A1

target: T1, Anti-CD28 Fab (SEQ ID NOs: 696, 697); assay: phage binding ELISA; Fab-coated wells pre-incubated with CD28 antigen as competitor, anti-M13 HRP detection;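 further: crude clonal phage supernatants from panned colonies added to wells after blocking buffer plus CD28 treatment, bound phage measured after a brief incubation and washing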
T1 construct: In the phage ELISA the Fab was biotinylated and captured on neutravidin coated plates
T1 sequence (VH, as listed by the source, chain 1 of 2): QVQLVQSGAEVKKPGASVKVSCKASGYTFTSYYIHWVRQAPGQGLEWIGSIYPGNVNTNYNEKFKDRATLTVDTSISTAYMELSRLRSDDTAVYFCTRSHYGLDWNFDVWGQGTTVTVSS
T1 sequence (VL, as listed by the source, chain 2 of 2): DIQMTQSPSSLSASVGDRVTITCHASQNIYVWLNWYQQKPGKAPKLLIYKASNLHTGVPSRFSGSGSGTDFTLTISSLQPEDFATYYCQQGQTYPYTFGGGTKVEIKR
Where no end group is shown, it is not given here.
I'd appreciate it if you could supply Anti-CD28 Fab signal in the presence of CD28 (phage binding ELISA) values for the items below.

Field: example entries. Status: answers known.
YCEGHLAVYMEKCL (cysteine pairing not given here; also: displayed fused to phage pIII protein, fusion end and linker not given here, Tested as clonal phage supernatant; not shown: fused to the pIII filament protein of the bacteriophage) [Phage-923 (Peptide-87 library clone, SEQ ID NO: 1239)] : 0.12
YCDGHSREYMNKCL (cysteine pairing not given here; also: fused to phage pIII, Tested as clonal phage supernatant; not shown: fused to the pIII filament protein of the bacteriophage) [Phage-919 (Peptide-87 library clone, SEQ ID NO: 1235)] : 0.06
YCDGHSAEYLLKCL (cysteine pairing not given here; also: displayed fused to phage pIII protein, fusion end and linker not given here, Tested as clonal phage supernatant; not shown: fused to the pIII filament protein of the bacteriophage) [Phage-928 (Peptide-87 library clone, SEQ ID NO: 1244)] : 0.07

--- query ---
### Prompt Given YCDGHGPQYIQKCL (cysteine pairing not given here; also: displayed fused to phage pIII protein, fusion end and linker not given here, Tested as clonal phage supernatant; not shown: fused to the pIII filament protein of the bacteriophage) [Phage-929 (Peptide-87 library clone, SEQ ID NO: 1245)] , respond with its Anti-CD28 Fab signal in the presence of CD28 (phage binding ELISA).
### Response 0.07
